- tested.system: Human SIRPα v1 (antigen of the Octet and Biacore affinity measurements) (human, UniProt P78324 31-370, limits assumed)
- Sequence (P78324 31-370 limits assumed): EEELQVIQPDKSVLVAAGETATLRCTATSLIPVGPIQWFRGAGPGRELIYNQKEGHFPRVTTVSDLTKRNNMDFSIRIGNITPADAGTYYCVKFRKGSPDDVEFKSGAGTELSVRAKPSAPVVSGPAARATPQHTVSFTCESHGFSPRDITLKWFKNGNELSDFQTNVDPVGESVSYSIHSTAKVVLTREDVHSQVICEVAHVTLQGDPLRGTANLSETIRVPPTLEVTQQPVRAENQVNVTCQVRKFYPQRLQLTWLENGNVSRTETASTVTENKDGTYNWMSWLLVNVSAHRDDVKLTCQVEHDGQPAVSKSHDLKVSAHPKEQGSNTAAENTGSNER
- protocol.text: BLI (Octet), 1:1 binding model
- Procedure: The purified chimeric antibodies were characterized for binding affinity against human SIRPα v1, human SIRPα v2 using Bio-Layer Interferometry technology (Octet system). The association and dissociation curves were fit with 1:1 binding model, and the Ka/Kd/KD values for each antibody were calculated.
Listed here are binders together with their documented kon.
All answers are understood in M⁻¹ s⁻¹, so give the number only.

The reported value for 059c (antibody, V domains shown, also called chimeric antibody 059c) VH: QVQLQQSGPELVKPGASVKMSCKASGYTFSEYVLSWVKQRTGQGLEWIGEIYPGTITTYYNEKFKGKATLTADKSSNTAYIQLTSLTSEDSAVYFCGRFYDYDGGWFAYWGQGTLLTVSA VL: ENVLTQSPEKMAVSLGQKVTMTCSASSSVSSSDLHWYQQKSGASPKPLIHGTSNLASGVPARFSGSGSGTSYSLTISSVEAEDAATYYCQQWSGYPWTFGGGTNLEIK in terms of kon is 944000

The measured kon associated with 015c (antibody, V domains shown, also called chimeric antibody 015c) VH: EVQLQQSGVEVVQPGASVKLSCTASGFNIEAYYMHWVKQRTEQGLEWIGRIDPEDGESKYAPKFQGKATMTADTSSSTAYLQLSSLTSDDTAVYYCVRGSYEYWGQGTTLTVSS VL: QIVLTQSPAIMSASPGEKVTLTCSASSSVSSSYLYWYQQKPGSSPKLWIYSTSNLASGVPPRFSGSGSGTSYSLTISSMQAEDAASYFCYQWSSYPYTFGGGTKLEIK reads 897000

Data provenance is patent US20250270315A1.
